# Tested on: rat DGAT2 mRNA
# Experimental details: Dose-dependent inhibition of DGAT2 in A10 cells (Tables 82, 83)
# Assay type: cell-based
# Assay setup: 1.85 nM (Table 83)
Strand notation (5' to 3'): a small letter for the sugar, then the base; units joined by * are phosphorothioate-linked, units joined directly phosphodiester-linked; [ ] holds rarer units or linkages, { } end groups; capitals alone tell only the bases. e = 2'-O-(2-methoxyethyl) (MOE); [5mC] = 5-methylcytosine; d = 2'-deoxy (DNA)
Observed property: percent inhibition of rat DGAT2 (%)
Report the figure in % without appending any unit label.

Short answer for 372516 (antisense eT*eA*e[5mC]*dA*dG*dA*dA*dG*dG*d[5mC]*dA*d[5mC]*d[5mC]*e[5mC]*eA*eG) [compound 372516] : percent inhibition of rat DGAT2 was 10

In plain terms, 372503 (antisense eG*e[5mC]*eA*dG*dG*dT*dT*dG*dT*dG*dT*dG*dT*e[5mC]*eT*eT) [compound 372503] has a documented percent inhibition of rat DGAT2 of 10

Please fill in: percent inhibition of rat DGAT2 reported for 372586 (antisense eG*eT*dT*d[5mC]*d[5mC]*dT*dG*dG*dT*dG*dG*dT*e[5mC]*eA) [compound 372586] = 0

For this substance ( 372563 (antisense eA*eG*d[5mC]*d[5mC]*dA*dG*dG*dT*dG*dA*d[5mC]*dA*eG*eA) [compound 372563] ), measured percent inhibition of rat DGAT2 is 0

So, 372508 (antisense eA*eG*eT*dT*d[5mC]*d[5mC]*dT*dG*dG*dT*dG*dG*dT*e[5mC]*eA*eG) [compound 372508] ? Its percent inhibition of rat DGAT2 was 0

Query 372524 (antisense eG*e[5mC]*e[5mC]*dA*dG*dG*d[5mC]*dA*dT*dG*dG*dA*dG*e[5mC]*eT*e[5mC]) [compound 372524] yields percent inhibition of rat DGAT2 of 0
